Origin of values: paper PMC10725268

test: Estimation of PMB AUC0-24 from timed steady-state plasma concentrations; format: in vivo, human; details: human, iv, AUC0–24, trapezoidal area, based on Cmin(B), C1/2t(B), and Cmax(B), mean ± SD, Non-AKI (n = 25)
Where a SMILES comes first, the peptide text is derived from it. Bridges are numbered along the chain shown (N, C = ends). [ ]: non-standard residue; d: D form. The star is where a group is joined. X1 = CC[C@H](C)CCCCC(=O)*; Dab = NCC[C@H](N)C(=O)O
quantity-name: AUC(0-t) (ng·h/mL)

# compound, quantity-name, measurement-units, reported-result
measured = [
    ("CC[C@H](C)CCCCC(=O)N[C@@H](CCN)C(=O)N[C@H](C(=O)N[C@@H](CCN)C(=O)N[C@H]1CCNC(=O)[C@H]([C@@H](C)O)NC(=O)[C@H](CCN)NC(=O)[C@H](CCN)NC(=O)[C@H](CC(C)C)NC(=O)[C@@H](Cc2ccccc2)NC(=O)[C@H](CCN)NC1=O)[C@@H](C)O [PMB, polymyxin B] (X1-[Dab]T[Dab][Dab][Dab][dF]L[Dab][Dab]T; lactam 4-C)", "AUC(0-t)", "ng·h/mL", 85400),
]
